- protocol-description: Absorption spectrum of the compound in chloroform solution (spectral characteristics)
- Format: physicochemical
- reported-conditions: 5×10^−6 mol/L, 1 cm cell
measured-attribute: λmax (maximal absorption wavelength) (nm)
Please reply with the bare figure in nm and do not write the unit itself.

C=C(C)C(=O)OCCN(CCOC(=O)C(=C)C)c1ccc(C2=C([O-])/C(=C3\C=CC(=[N+](CCOC(=O)C(=C)C)CCOC(=O)C(=C)C)C=C3NC(C)=O)C2=O)c(NC(C)=O)c1
667
C=C(C)C(=O)OCCOC(=O)C1=C(C)/C(=C2\C(=O)C(c3[nH]c(C)c(CC)c3C)=C2O)N=C1C
556
CCN(CC)c1ccc(C2=C([O-])/C(=C3\C=CC(=[N+](CC)CC)C=C3NC(C)=O)C2=O)c(NC(C)=O)c1
676
C=Cc1ccc(Cn2c(C)c(CC)c(C)c2C2=C([O-])/C(=C3/C(C)=C(CC)C(C)=[N+]3Cc3ccc(C=C)cc3)C2=O)cc1
591

Now, please, on to the next molecule.
Data point: "CCC1=C(C)/C(=C2\C(=O)C(c3[nH]c(C)c(CC)c3C)=C2O)N=C1C" ; λmax (maximal absorption wavelength) = 564
